// reported cytotoxicity per item
test system: Vero E6; assay: cytotoxicity relative to untreated cell control; higher = more toxic; details: 0.0152416 µM; 72 h; assay detail: uninfected
Counter-ions that a name gives are not always drawn.
// units = %; emit number, no label

Look at this compound and give its reported cytotoxicity. Cc1ccc(NC(=O)c2ccc(CN3CCN(C)CC3)cc2)cc1Nc1nccc(-c2cccnc2)n1 [imatinib mesylate]
-8.01

Fill in: cytotoxicity of O=C(/C=C\n1cnc(-c2cc(C(F)(F)F)cc(C(F)(F)F)c2)n1)NNc1cnccn1 [selinexor] is ___
7.88

Give its cytotoxicity value. Item: CCC(CC)COC(=O)[C@H](C)N[P@](=O)(OC[C@H]1O[C@@](C#N)(c2ccc3c(N)ncnn23)[C@H](O)[C@@H]1O)Oc1ccccc1
-6.94

cytotoxicity for Cc1ccc(NC(=O)c2ccc(CN3CCN(C)CC3)cc2)cc1Nc1nc(-c2cccnc2)cs1 ?
-16.3

Entry CCC[C@H](NC(=O)[C@@H]1[C@H]2CCC[C@H]2CN1C(=O)[C@@H](NC(=O)[C@@H](NC(=O)c1cnccn1)C1CCCCC1)C(C)(C)C)C(=O)C(=O)NC1CC1 has what cytotoxicity?
-3.42

---

system: Vero E6; test: inhibition of SARS-CoV-2-induced cytopathic effect relative to cell and virus controls; higher = more antiviral protection; details: 0.000564503 µM; 72 h; virus: SARS-CoV-2 propagated original strain, 100 TCID50; assay detail: infected
Where a name gives a salt, the structure may show the parent alone.
Binary classification by inhibition of SARS-CoV-2-induced cytopathic effect, with 0.1% as an inclusive lower bound for satisfied; all other cases are not satisfied.

Reference set (4 entries):
| compound | tested.target | label.value |
| --- | --- | --- |
| CCC[C@H](NC(=O)[C@@H]1[C@H]2CCC[C@H]2CN1C(=O)[C@@H](NC(=O)[C@@H](NC(=O)c1cnccn1)C1CCCCC1)C(C)(C)C)C(=O)C(=O)NC1CC1 [telaprevir] | Vero E6 | satisfied |
| Cc1ccc(NC(=O)c2ccc(CN3CCN(C)CC3)cc2)cc1Nc1nccc(-c2cccnc2)n1 [imatinib mesylate] | Vero E6 | not satisfied |
| Cc1ccc(NC(=O)c2ccc(CN3CCN(C)CC3)cc2)cc1Nc1nc(-c2cccnc2)cs1 [masitinib] | Vero E6 | satisfied |
| O=C(/C=C\n1cnc(-c2cc(C(F)(F)F)cc(C(F)(F)F)c2)n1)NNc1cnccn1 [selinexor] | Vero E6 | satisfied |

Item CCC(CC)COC(=O)[C@H](C)N[P@](=O)(OC[C@H]1O[C@@](C#N)(c2ccc3c(N)ncnn23)[C@H](O)[C@@H]1O)Oc1ccccc1 [remdesivir] with inhibition of SARS-CoV-2-induced cytopathic effect of 0.1% or above?
satisfied

---

test system: Vero E6; experiment: cytotoxicity relative to untreated cell control; higher = more toxic; conditions: 0.0457247 µM; 72 h; assay detail: uninfected
Where a name gives a salt, the structure may show the parent alone.
observable: cytotoxicity (%)
State just the number; it will be interpreted in %.

Known results for compounds:
| compound | tested.target | cytotoxicity / % |
| --- | --- | --- |
| CCC[C@H](NC(=O)[C@@H]1[C@H]2CCC[C@H]2CN1C(=O)[C@@H](NC(=O)[C@@H](NC(=O)c1cnccn1)C1CCCCC1)C(C)(C)C)C(=O)C(=O)NC1CC1 | Vero E6 | -3.36 |
| CCC(CC)COC(=O)[C@H](C)N[P@](=O)(OC[C@H]1O[C@@](C#N)(c2ccc3c(N)ncnn23)[C@H](O)[C@@H]1O)Oc1ccccc1 | Vero E6 | -6.5 |
| O=C(/C=C\n1cnc(-c2cc(C(F)(F)F)cc(C(F)(F)F)c2)n1)NNc1cnccn1 [selinexor] | Vero E6 | 29.1 |
| Cc1ccc(NC(=O)c2ccc(CN3CCN(C)CC3)cc2)cc1Nc1nccc(-c2cccnc2)n1 [imatinib mesylate] | Vero E6 | -4.41 |

// below: cytotoxicity requested for another compound
Dear colleague, I am looking for the recorded cytotoxicity of the following compound: Cc1ccc(NC(=O)c2ccc(CN3CCN(C)CC3)cc2)cc1Nc1nc(-c2cccnc2)cs1
-19.4

---

As shown below, each of these molecules has a reported inhibition of SARS-CoV-2-induced cytopathic effect value.
tested on: Vero E6; experiment: inhibition of SARS-CoV-2-induced cytopathic effect relative to cell and virus controls; higher = more antiviral protection; conditions: 10 µM; 72 h; virus: SARS-CoV-2 propagated original strain, 100 TCID50; assay detail: infected
Structures can show the parent of a compound that is named as a salt.
Your answer should be a plain number; it is taken to be in %.

In the examples that follow, each entry is paired with its recorded inhibition of SARS-CoV-2-induced cytopathic effect.
| molecule | units.text | recorded.number |
| --- | --- | --- |
| O=c1nc(NO)ccn1[C@@H]1O[C@H](CO)[C@@H](O)[C@H]1O | % | 70.6 |
| CCS(=O)(=O)N1CC(CC#N)(n2cc(-c3ncnc4[nH]ccc34)cn2)C1 | % | -1.06 |
| O=c1c2ccccc2[se]n1-c1ccccc1 | % | 71.3 |
| N=C(N)Nc1ccc(C(=O)Oc2ccc3cc(C(=N)N)ccc3c2)cc1 [nafamostat mesylate] | % | -0.288 |

Which inhibition of SARS-CoV-2-induced cytopathic effect value belongs to CCc1c2c(nc3ccc(O)cc13)-c1cc3c(c(=O)n1C2)COC(=O)[C@]3(O)CC ?
-17.4

---

// reported cytotoxicity for each item listed
test system: Vero E6; assay: cytotoxicity relative to untreated cell control; higher = more toxic; conditions: 0.000169351 µM; 72 h; assay detail: uninfected
Where a name gives a salt, the structure may show the parent alone.
Numeric answer only, unit % assumed.

Consider the following illustrative entries.
| molecule | units.text | cytotoxicity |
| --- | --- | --- |
| CCS(=O)(=O)N1CC(CC#N)(n2cc(-c3ncnc4[nH]ccc34)cn2)C1 | % | -24.9 |
| N=C(N)Nc1ccc(C(=O)Oc2ccc3cc(C(=N)N)ccc3c2)cc1 [nafamostat mesylate] | % | -7.59 |
| O=c1nc(NO)ccn1[C@@H]1O[C@H](CO)[C@@H](O)[C@H]1O | % | -16.6 |

// lookup cytotoxicity | system=Vero E6 | key= O=c1c2ccccc2[se]n1-c1ccccc1
-15.3

Lab request: please report cytotoxicity under test system Vero E6 for CCc1c2c(nc3ccc(O)cc13)-c1cc3c(c(=O)n1C2)COC(=O)[C@]3(O)CC
-12.8

---

Form field: inhibition of SARS-CoV-2-induced cytopathic effect (one value per entry).
tested on: Vero E6; assay: inhibition of SARS-CoV-2-induced cytopathic effect relative to cell and virus controls; higher = more antiviral protection; conditions: 33.3333 µM; 72 h; virus: SARS-CoV-2 propagated original strain, 100 TCID50; assay detail: infected
Counter-ions that a name gives are not always drawn.
Return type: number; implicit unit %.

Look over these answered cases.
| compound | units.text | recorded.number |
| --- | --- | --- |
| CCC(CC)COC(=O)[C@H](C)N[P@](=O)(OC[C@H]1O[C@@](C#N)(c2ccc3c(N)ncnn23)[C@H](O)[C@@H]1O)Oc1ccccc1 | % | 96.6 |
| Cc1ccc(NC(=O)c2ccc(CN3CCN(C)CC3)cc2)cc1Nc1nccc(-c2cccnc2)n1 [imatinib mesylate] | % | 48.6 |
| O=C(/C=C\n1cnc(-c2cc(C(F)(F)F)cc(C(F)(F)F)c2)n1)NNc1cnccn1 [selinexor] | % | -1.32 |
| Cc1ccc(NC(=O)c2ccc(CN3CCN(C)CC3)cc2)cc1Nc1nc(-c2cccnc2)cs1 | % | -7.42 |

Look up inhibition of SARS-CoV-2-induced cytopathic effect: CCC[C@H](NC(=O)[C@@H]1[C@H]2CCC[C@H]2CN1C(=O)[C@@H](NC(=O)[C@@H](NC(=O)c1cnccn1)C1CCCCC1)C(C)(C)C)C(=O)C(=O)NC1CC1
-2.07

---

system: Vero E6; assay: inhibition of SARS-CoV-2-induced cytopathic effect relative to cell and virus controls; higher = more antiviral protection; conditions: 1.23457 µM; 72 h; virus: SARS-CoV-2 propagated original strain, 100 TCID50; assay detail: infected
Where a name gives a salt, the structure may show the parent alone.
observable: inhibition of SARS-CoV-2-induced cytopathic effect (%)
Respond numerically; units are % and should not be typed.

Here's what some known entries look like.
| molecule | units.text | recorded.number |
| --- | --- | --- |
| O=C(/C=C\n1cnc(-c2cc(C(F)(F)F)cc(C(F)(F)F)c2)n1)NNc1cnccn1 [selinexor] | % | -2.87 |
| CCC(CC)COC(=O)[C@H](C)N[P@](=O)(OC[C@H]1O[C@@](C#N)(c2ccc3c(N)ncnn23)[C@H](O)[C@@H]1O)Oc1ccccc1 | % | 42.2 |
| Cc1ccc(NC(=O)c2ccc(CN3CCN(C)CC3)cc2)cc1Nc1nccc(-c2cccnc2)n1 [imatinib mesylate] | % | 1.61 |
| CCC[C@H](NC(=O)[C@@H]1[C@H]2CCC[C@H]2CN1C(=O)[C@@H](NC(=O)[C@@H](NC(=O)c1cnccn1)C1CCCCC1)C(C)(C)C)C(=O)C(=O)NC1CC1 | % | 1.01 |

Proceeding to the next molecule to report its inhibition of SARS-CoV-2-induced cytopathic effect.
Returns the measured inhibition of SARS-CoV-2-induced cytopathic effect for the input molecule. Input: Cc1ccc(NC(=O)c2ccc(CN3CCN(C)CC3)cc2)cc1Nc1nc(-c2cccnc2)cs1
8.75
